target: human recombinant dopamine D2S receptor (Homo sapiens, UniProt P14416); experiment: Dopamine D2S antagonist activity ([35S]GTPγS binding, SPA); format: biochemical; conditions: 0.3 uM; two values = assay run twice; read-out: Antagonist Activity As Measured by % Inhibition D2S
Sequence (P14416 1-414 isoform P14416-2): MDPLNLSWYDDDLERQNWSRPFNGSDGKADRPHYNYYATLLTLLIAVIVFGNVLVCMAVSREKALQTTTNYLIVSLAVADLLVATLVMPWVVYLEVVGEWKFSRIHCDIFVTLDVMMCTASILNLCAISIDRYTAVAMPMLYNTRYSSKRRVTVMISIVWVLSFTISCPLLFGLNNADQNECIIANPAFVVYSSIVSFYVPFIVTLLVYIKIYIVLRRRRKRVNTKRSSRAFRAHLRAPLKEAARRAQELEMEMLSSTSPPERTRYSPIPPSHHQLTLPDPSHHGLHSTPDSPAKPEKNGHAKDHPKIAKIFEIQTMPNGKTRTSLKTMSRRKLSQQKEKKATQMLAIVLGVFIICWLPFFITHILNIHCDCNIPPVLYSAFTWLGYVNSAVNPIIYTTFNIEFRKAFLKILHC
The entries below come with measured inhibition at 0.3 µM values attached.
Please state the figure in %; there is no need to write the unit.

# annotated cases, reported inhibition at 0.3 µM shown
# molecule, inhibition at 0.3 µM / %
rows = [
    ("Cc1ccc2c(c1)c1c(n2CCc2ccc(C(F)(F)F)nc2)CCN(C)C1 [Compound 68]", 42),
    ("COc1ccc(CCn2c3c(c4cc(C)ccc42)CN(C)CC3)cc1 [Compound 247]", 81),
    ("CN1CCc2c(c3cc(F)ccc3n2CCc2ccc(F)cc2)C1 [Compound 253]", 96),
]

stdin: Look up inhibition at 0.3 µM: CN1CCc2c(c3cc(Cl)ccc3n2CCc2ccccc2)C1 [Compound 36]
stdout: 98

###

target: human recombinant serotonin (5-Hydroxytryptamine) 5-HT6 receptor (Homo sapiens); construct: expressed in transfected cells; host or cells: human HeLa cells; experiment: Serotonin 5-HT6 radioligand binding ([3H]LSD); details: percent inhibition of specific binding
Sequence (P50406 whole entry): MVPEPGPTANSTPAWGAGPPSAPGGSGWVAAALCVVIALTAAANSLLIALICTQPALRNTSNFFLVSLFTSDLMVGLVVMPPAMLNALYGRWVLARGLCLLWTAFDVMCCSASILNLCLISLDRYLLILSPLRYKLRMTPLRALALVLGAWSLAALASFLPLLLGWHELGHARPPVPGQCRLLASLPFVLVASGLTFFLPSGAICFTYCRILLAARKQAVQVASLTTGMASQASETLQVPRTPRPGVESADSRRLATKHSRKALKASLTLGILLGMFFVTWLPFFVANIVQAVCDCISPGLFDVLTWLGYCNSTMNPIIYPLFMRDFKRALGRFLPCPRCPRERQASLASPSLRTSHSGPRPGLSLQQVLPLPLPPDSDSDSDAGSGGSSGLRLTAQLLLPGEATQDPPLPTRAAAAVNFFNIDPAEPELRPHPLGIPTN
measure: Inhibition of ligand binding, Ser. 5-HT6 (%)
Please state the figure in %; there is no need to write the unit.

# compound, Inhibition of ligand binding, Ser. 5-HT6 [%]
rows = [
    ("Cc1ccc2c(c1)c1c(n2CCc2ccccc2)CC(O)N(C)C1=O (centres unmarked)", 8),
    ("CN1CCc2c(c3cc(I)ccc3n2CCc2ccccc2F)C1", 103),
    ("Cc1ccc2c(c1)c1c(n2CCc2ccc(C)nc2)CCN(C)C1=O", "−8"),
    ("CN1CCc2c(c3cc(Cl)cc(F)c3n2CCc2ccc(C(F)(F)F)nc2)C1", 66),
]

Below: the item to evaluate.
stdin: // lookup Inhibition of ligand binding, Ser. 5-HT6 | system=human recombinant serotonin (5-Hydroxytryptamine) 5-HT6 receptor (Homo sapiens) | key= Cc1ccc2c(c1)c1c(n2CC(=O)N2CCSCC2)CCN(C)C1
stdout: −5

###

Target: human recombinant adrenergic α2B receptor (Homo sapiens)
Construct: expressed in transfected cells; host or cells: CHO-K1 cells
Sequence (P18089 1-450): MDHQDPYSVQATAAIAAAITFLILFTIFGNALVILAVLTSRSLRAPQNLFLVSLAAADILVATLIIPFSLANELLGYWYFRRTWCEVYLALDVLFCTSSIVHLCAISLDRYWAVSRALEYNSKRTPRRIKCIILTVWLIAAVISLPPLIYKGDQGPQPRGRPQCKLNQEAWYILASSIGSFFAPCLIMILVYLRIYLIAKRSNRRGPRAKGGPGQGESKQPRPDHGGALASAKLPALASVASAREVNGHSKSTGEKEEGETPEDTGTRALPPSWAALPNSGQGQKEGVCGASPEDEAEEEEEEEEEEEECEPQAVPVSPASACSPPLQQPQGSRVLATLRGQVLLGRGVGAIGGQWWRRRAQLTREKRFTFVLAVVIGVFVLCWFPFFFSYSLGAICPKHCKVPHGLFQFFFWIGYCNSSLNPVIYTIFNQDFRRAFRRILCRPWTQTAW
Assay: Adrenergic α2B radioligand binding ([3H]Rauwolscine)
Conditions: compounds screened at 1 μM; read-out: Inhibition of ligand binding, Adren. alpha2B (percent inhibition of specific binding)
measure: inhibition at 1 µM (%)
Please state the figure in %; there is no need to write the unit.

# annotated cases, reported inhibition at 1 µM shown
# smiles input, measure, recorded measurement
records = [
    ("COc1ccc2c(c1)c1c(n2CCc2nc(-c3ccccc3)cs2)CCN(C)C1", "inhibition at 1 µM", 110),
    ("CN1CCc2c(c3ncccc3n2CCc2ccncc2)C1", "inhibition at 1 µM", 10),
    ("Cc1ccc2c(c1)c1c(n2CCc2nc(-c3ccccc3)cs2)CCN(C)C1", "inhibition at 1 µM", 113),
    ("CN1CCc2c(c3ccncc3n2CCc2ccncc2)C1", "inhibition at 1 µM", 12),
]

Below: the item to evaluate.
stdin: Look up inhibition at 1 µM: Cc1ccc(CCn2c3c(c4cc(I)ccc42)CN(C)CC3)cn1
stdout: 98
